Where do the numbers come from? From PubChem BioAssay (NCI).

- Tested on: HCT-116 colon
- assay_explanation: NCI tumour cell line growth inhibition, 48 h
measure: TGI

CC(=O)c1sc2c(c1OC(=O)c1cccs1)c(=O)n(-c1ccccc1)c(=S)n2-c1ccccc1 ... 36.6 µM
Cc1ccc2c(c1CCCC(C)(C)O)C(=O)C(=O)C(C(C)C)=C2O ... > 100 µM
O=C(O)c1nc(-c2ccccn2)c(-c2ccccn2)nc1C(=O)O ... 5.6 µM
Cc1cn(C2CC(ON3C(=O)c4ccccc4C3=O)C(CO)O2)c(=O)[nH]c1=O (stereo unspecified) ... > 10 µM
Cc1cccc(/C=N/NC(=S)NCCc2ccccn2)n1 ... > 100 µM
O=C(CC(c1ccccc1)N1CCCCC1)c1ccccc1 (stereo unspecified) ... 19.9 µM
COc1ccccc1NC(=O)C1=C(C)NC(C)=C(C(=O)Nc2ccccc2OC)C1c1ccc([N+](=O)[O-])cc1 ... > 100 µM
CCOC(=O)C1=C(C)N(N)C(=S)NC1c1ccc(C)cc1 (stereo unspecified) ... > 100 µM
COC(=O)c1ccc(/C=C2\N=C(C)OC2=O)cc1 ... > 100 µM
O=C(O)c1cccc(OCCO)c1 ... > 100 µM
O=C1/C(=C\c2cccn2Cc2ccccc2)c2ccccc2N1c1c(Cl)cccc1Cl ... > 100 µM

====

- Test system: NCI-H460 lung
- assay_explanation: NCI tumour cell line growth inhibition, 48 h
measure: TGI

CCN1C(=O)N(CC)C2C1NC(=S)N2/N=C/C=C/c1cccs1 (stereo unspecified) ... > 100 µM
C[C@H]1[C@H](C)CC[C@]2(C)CC[C@]3(C)C(=C[C@@H](O)[C@@H]4[C@@]5(C)[C@H](O)[C@@H](O)[C@H](O)C(C)(C)[C@@H]5CC[C@]43C)[C@H]12 ... > 100 µM
CCN(CC)CCOc1ccc(/C(=C(\C)c2ccc(F)c(OC)c2)c2ccc(Cl)cc2)cc1 ... 4.24 µM
CCCCN1C=CN2c3nc4cc(C)c(C)cc4n3C(C(=O)OC)=C(C(=O)OC)C12 (stereo unspecified) ... > 100 µM
CC(C)(C)N1CC2(CCCCC2)C1=O ... > 100 µM
CN1CCc2c(Sc3ccc(C(=O)NO)cc3)c3ccccc3n2C1 ... 7.73 µM
CCOC(=O)c1csc(NC(=O)C(C)N2CCCCC2)n1 (stereo unspecified) ... > 100 µM
Cc1ccc(S(=O)(=O)C2=Cc3ccc(C(F)(F)F)cc3C2(O)c2cccc(C(F)(F)F)c2)cc1 (stereo unspecified) ... 6.9 µM
COc1cc2c(cc1OCc1ccccc1)CNCC2 ... > 100 µM
C#C[C@]1(O)CC[C@H]2[C@@H]3CC=C4c5sc(Nc6ccccc6)nc5CC[C@]4(C)[C@H]3CC[C@@]21C ... 6.4 µM
CCCCCC(C[N+]1(C)CCOCC1)C(=O)/C=C/c1ccccc1 (stereo unspecified) ... > 61.5 µM
N#CSc1nc[nH]c1C(N)=O ... > 100 µM
COc1cccc(OC)c1/C=C1\OC(=O)c2cccc(OC)c21 ... > 100 µM
CN(C)c1ccc2nc3ccc(=O)cc-3sc2c1 ... 15.7 µM
CC(=O)OCC1OC(Nc2ncc(-c3ccc(C)cc3)s2)C(OC(C)=O)C(OC(C)=O)C1OC(C)=O (stereo unspecified) ... > 80.9 µM
N#CC1Nc2ccccc2[C@@H](O)C1O (stereo partly specified) ... > 100 µM
NS(=O)(=O)c1ccc(-n2c(-c3cccs3)nc3ccc(I)cc3c2=O)cc1 ... 83 µM
C/C(=N\Nc1cc(CN2CCCC2)c(-c2ccc(Cl)cc2)nn1)C(=O)O ... > 100 µM
COc1cccc(CCn2c(N)c(-c3ccccc3)c3ccc([N+](=O)[O-])cc3c2=O)c1 ... 30 µM
Cc1ccc(Nc2nc(N)c(C(=O)c3ccc(C#N)cc3)s2)cc1 ... > 100 µM
O=C(CCC(=O)Nc1cccc(Cl)c1)CC(=O)c1ccc(Cl)cc1 ... > 100 µM
O=C1c2ccn(CCCCNC(CO)(CO)CO)c2C(=O)c2c1c(O)c1ccccc1c2O ... 13.8 µM
O=c1cc(-c2ccccc2)[nH]c2cc3c(cc12)OCO3 ... > 57.8 µM
O=C(C[n+]1ccccc1)NNC(=O)/C(=C/c1ccc2c(c1)OCO2)NC(=O)c1ccccc1 ... 98.3 µM
C/C(=C1/CCCC2(N=NCC2c2ccccc2)C1=O)c1ccccc1 (stereo unspecified) ... > 100 µM
COc1cc2c(cc1OC)C13CCN4CC5=CCOC6CC(=O)N2C1C6C5CC43O (stereo unspecified) ... > 100 µM
O=C(N/N=C\c1cc(Br)ccc1O)c1ccncc1 ... > 100 µM
CC(=O)O[C@@H]1C[C@]2(C(C)C)O[C@@]1(C)[C@@H]1CCC(C)=C1[C@@H]2OC(=O)/C=C/c1ccccc1 ... > 100 µM
N#CC(C(=O)/C(=N/Nc1nc(=S)[nH]n1N)C(C#N)c1ccccc1)c1ccccc1 (stereo unspecified) ... > 100 µM
CCN(CC)c1ccc2cc(-c3nnc(-c4ccccc4)o3)c(=O)oc2c1 ... > 51.3 µM
Cn1ccc(C(=O)NCCOCCNC(=O)c2ccn(C)c(=O)c2O)c(O)c1=O ... > 100 µM
OCCCCC#Cc1ccccc1C#Cc1cccc(O)c1 ... 40.7 µM
Clc1ccc(Cl)c(Nc2ccnc(SCc3ccccc3)n2)c1 ... > 100 µM
Cc1c[n+](Cc2ccc3ccccc3c2)cn1Cc1ccc2ccccc2c1 ... 3.65 µM
CC(=O)Oc1ccccc1C(=O)N=C1[Se]CCCN1C(=O)c1ccccc1OC(C)=O ... 5.5 µM
COc1ccc2c(c1C)C(=O)C(O)(CC=C(C)C)O2 (stereo unspecified) ... > 100 µM
CC(=O)N(C(=O)CC(=O)N/N=C\c1ccc(Br)c(N(CCC#N)CCC#N)c1)c1ccc(Cl)cc1 ... > 100 µM
N#CC(C#N)=c1[nH]c2cccc3c2-c2c(cccc2c3=C(C#N)C#N)[nH]1 ... > 100 µM
COc1ccc2c(c1)CC[C@@H]1[C@@H]2CC[C@]2(C)C(=O)/C(=C/c3ccc(OC)c(OC)c3)C[C@@H]12 ... > 100 µM
O=C(Nc1ccc(Cl)cc1F)c1cc(Br)ccc1O ... 18.3 µM
COc1cc(/C=C2\C[C@H]3[C@@H]4CC=C5C[C@@H](O)CC[C@]5(C)[C@H]4CC[C@]3(C)C2=O)cc(OC)c1OC ... > 100 µM

====

- Tested on: SK-MEL-28 melanoma
- assay_explanation: NCI tumour cell line growth inhibition, 48 h
Parameter: GI50. Scope: all listed entries.
measure: GI50

c1ccc2c3ccn4cc5c(cc4c-3nc2c1)CCCC5 ... 2.38 µM
CC(=O)O[C@@H]1C[C@]2(C(C)C)O[C@@]1(C)[C@@H]1CCC(C)=C1[C@@H]2OC(=O)/C=C/c1ccccc1 ... 69.9 µM
COc1cc(/C=C2\C(=O)Nc3ccc(F)cc32)cc(OC)c1OC ... 56.7 µM
CN(C)c1ccc2nc3ccc(=O)cc-3sc2c1 ... 4.6 µM
CCOC(=O)C1=C(C)N(N)C(=S)NC1c1ccc(C)cc1 (stereo not given) ... 6.99 µM

====

- Tested on: DU-145 prostate
- assay_explanation: NCI tumour cell line growth inhibition, 48 h
measure: TGI (µM)

Cc1c[n+](Cc2ccc3ccccc3c2)cn1Cc1ccc2ccccc2c1 ... 9.61
O=C1NC(=O)C(c2c[nH]c3cc(Br)ccc23)=C1c1cn(C(c2ccccc2)(c2ccccc2)c2ccccc2)cn1 ... 62.8
Nc1nc(Nc2ccccc2)c2ncn(Cc3cc4c(cc3Br)OCO4)c2n1 ... 13.7
CCCCCc1c(C)[nH]c(/C=C2\N=C(c3ccc[nH]3)C=C2CC)c1C ... 1.19
COC(COC(=O)N1CCN(C=O)CC1)C1=C(N2CC2)C(=O)C(C)=C(N2CC2)C1=O (centres undefined) ... 4.01
CCOC(=O)C1=C(C)N(N)C(=S)NC1c1ccc(C)cc1 (centres undefined) ... 12.3
CC(=O)Oc1ccccc1C(=O)N=C1[Se]CCCN1C(=O)c1ccccc1OC(C)=O ... 3.26
CC(=O)Oc1ccccc1C(=O)N=C1[Se]CCN1C(=O)c1ccccc1OC(C)=O ... 2.18
O=C(CN(C1CCCCC1)C1CCCCC1)Nc1ccc(S(=O)(=O)c2ccc(NC(=O)CN(C3CCCCC3)C3CCCCC3)cc2)cc1 ... 2.38
OCCCCC#Cc1ccccc1C#Cc1cccc(O)c1 ... 40.9
Cc1cc(NC(=O)c2ccc(C)c(Nc3nccc(-c4cccnc4)n3)c2)cc(-n2cnc(C)c2)c1 ... 9.06
C#C[C@]1(O)CC[C@H]2[C@@H]3CC=C4c5sc(Nc6ccccc6)nc5CC[C@]4(C)[C@H]3CC[C@@]21C ... 4.71
CCN(CC)CCOc1ccc(/C(=C(\C)c2ccc(F)c(OC)c2)c2ccc(Cl)cc2)cc1 ... 5.28
O=C(CC(c1ccccc1)N1CCCCC1)c1ccccc1 (centres undefined) ... 32.3
N#CC1(C2SCCS2=O)C2=C(C(=O)c3ccccc3C2=O)N2CCCC21 (centres undefined) ... 4.93
Cc1cc(C)cc(C(=N)c2ccccc2Cc2cccc3ccccc23)c1 ... 29.7
Cc1sc2nc(NCCc3c[nH]c4ccc(Cl)cc34)[nH]c(=O)c2c1C ... 13
